The measured values listed here are drawn from PubChem BioAssay (NCATS).

A collection of compounds and their measured activity change, negative = inhibition
Assay: qHTS Assay for Lipid Storage Modulators (AID 1519); note: % is set by controls: 0 for no effect and ±100 for the full control effect
Conditions: Drosophila S3 cells, BODIPY lipid droplet/cell ratio, laser cytometry; at 57.5 µM (top of the series); cells loaded with oleic acid
Description: NIH Molecular Libraries Probe Production Centers Network [MLPCN] NIH Chemical Genomics Center [NCGC] Assay Submitter (PI): Beller, Mathias; Max-Planck-Institut fur Biophysikalische Chemie […] We dispensed 4 uL of cells at 1.25 x 10^6 cells/mL into LoBase Aurora COC 1,536-well plates (black walled, clear bottom) with a bottle-valve solenoid-based dispenser (Aurora) to obtain 5,000 cells/well. […] The ratio of the total intensity in PMT channel 1 over total intensity of channel 3 was also calculated. […]
Inconclusive results are not listed.
Just the number in %, nothing appended.

Some solved entries appear below for comparison.
CC(=O)OC1CCC2(C)C(=CC=C3C2CCC2(C)C3CCC2C(C)/C=C/C(C)C(C)C)C1(C)C (stereo not drawn); 1.79
COc1cccc(/C=C/C(=O)O)c1C(C)C; 9.75
CCC(C)C(NC)C(=O)O (stereo not drawn); 5.09

Input line: # input compound: CCCC1CC(C(=O)N[C@H](C(C)O)C2OC(SC)[C@@H](O)C(O)C2O)N(C)C1 (stereo partly drawn) ; wanted: its activity change, negative = inhibition
Output line: 12.2

Input line: Please answer likewise for O=C(/C=C/c1ccc(O)c(O)c1)O[C@@H]1C[C@@](O)(C(=O)O)C[C@H](O)[C@@H]1O
Output line: -7.73

Input line: Please answer likewise for CC1(C)OC2C[C@](O)(C(N)=O)C[C@H](O)[C@H]2O1 (stereo partly drawn)
Output line: 3.65

Input line: Please answer likewise for COC(=O)C1C(O)CC[C@@H]2CN3CCc4c([nH]c5ccccc45)C3C[C@@H]12 (stereo partly drawn)
Output line: 4.48

Input line: Please answer likewise for COC(=O)C1=CO[C@@H](O[C@H]2OC(CO)C(O)C(O)C2O)C2C1CC(O)C2C (stereo partly drawn)
Output line: 6.73
